Every entry's value here was drawn from the supplement of paper PMC12669032.

# System: Bacteroides dorei
# ASSAY_SUMMARY: growth AUC relative to DMSO control (median of replicates) (fraction); higher = more growth (less inhibition), active = hit call of the paper
# CONDITIONS: 20 µM; 24 h
QUANTITY_MEASURED: growth AUC
The answer should be written as a number, with no unit following it.

The examples below pair each entry with its known result.
COP(=O)(OC)SCn1c(=O)oc2cc(Cl)cnc21 : 1.02
Cc1cnc2c(C(=O)O)c(Cl)ccc2c1 : 1.03
CCCN(CCC)C(=O)SCc1ccccc1 : 0.976
CCNc1nc(NC(C)C)[nH]c(=O)n1 : 1.04
N#Cc1nn(-c2c(Cl)cc(C(F)(F)F)cc2Cl)c(N)c1S(=O)(=O)C(F)(F)F : 0.961

## Input What growth AUC value was documented for this compound, CN(C)C(CSS(=O)(=O)[O-])CSS(=O)(=O)[O-].[Na+].[Na+] ?
## Output 1.09

## Input What growth AUC value was documented for this compound, CCOP(=O)(OCC)O/C(=C\Cl)c1ccc(Cl)cc1Cl ?
## Output 0.983

## Input What growth AUC value was documented for this compound, Cc1ccc(-c2c(Cl)nc(C#N)n2S(=O)(=O)N(C)C)cc1 ?
## Output 0.904

## Input What growth AUC value was documented for this compound, CC(C)c1ccc(NC(=O)N(C)C)cc1 ?
## Output 1.02

----------
# Tested on: Eubacterium rectale
# ASSAY_SUMMARY: growth AUC relative to DMSO control (median of replicates) (fraction); higher = more growth (less inhibition), active = hit call of the paper
# CONDITIONS: 20 µM; 24 h
QUANTITY_MEASURED: growth AUC
The answer should be written as a number, with no unit following it.

## Input Form: Entry = CC(C)NC(=O)N1CC(=O)N(c2cc(Cl)cc(Cl)c2)C1=O | System = Eubacterium rectale | growth AUC = ____
## Output 0.995

----------
# Tested on: Lactobacillus paracasei
# ASSAY_SUMMARY: growth AUC relative to DMSO control (median of replicates) (fraction); higher = more growth (less inhibition), active = hit call of the paper
# CONDITIONS: 20 µM; 24 h
QUANTITY_MEASURED: growth AUC
The answer should be written as a number, with no unit following it.

The examples below pair each entry with its known result.
O=C(O)CCCOc1ccc(Cl)cc1Cl : 1
O=C(O)C1(O)c2ccccc2-c2ccc(Cl)cc21 (stereo unspecified) : 0.997

## Input What growth AUC value was documented for this compound, Cc1cc(C)nc(Nc2ccccc2)n1 ?
## Output 0.988

## Input What growth AUC value was documented for this compound, BrCCBr ?
## Output 1

## Input What growth AUC value was documented for this compound, CCCCCCCCn1sccc1=O ?
## Output 1.01

## Input What growth AUC value was documented for this compound, CCC(C)(CC)c1cc(NC(=O)c2c(OC)cccc2OC)on1 ?
## Output 1.02

## Input What growth AUC value was documented for this compound, CCOc1cc(C(C)(C)C)ccc1C1COC(c2c(F)cccc2F)=N1 (stereo unspecified) ?
## Output 1.01

## Input What growth AUC value was documented for this compound, CCOP(=S)(OCC)Oc1ccc(S(C)=O)cc1 (stereo unspecified) ?
## Output 1

## Input What growth AUC value was documented for this compound, COC(=O)NC(=S)Nc1ccccc1NC(=S)NC(=O)OC ?
## Output 1.01

## Input What growth AUC value was documented for this compound, C=CCOC(=O)C(C)(C)OC(=O)c1cc(-n2c(=O)cc(C(F)(F)F)n(C)c2=O)ccc1Cl ?
## Output 1.01

## Input What growth AUC value was documented for this compound, CNC(=O)Oc1cccc2c1OC(C)(C)C2 ?
## Output 0.994

## Input What growth AUC value was documented for this compound, C#CCN1CC(=O)N(COC(=O)C2C(C=C(C)C)C2(C)C)C1=O (mixture of isomers) ?
## Output 0.997

## Input What growth AUC value was documented for this compound, CS(=O)(=O)c1ccc(C(=O)C2C(=O)CCCC2=O)c(Cl)c1COCC(F)(F)F ?
## Output 0.989

## Input What growth AUC value was documented for this compound, COc1ccc(/C(=C/C(=O)N2CCOCC2)c2ccc(F)cc2)cc1OC ?
## Output 0.976

## Input What growth AUC value was documented for this compound, CCCCOC(=O)c1ccccc1C(=O)OCCCC ?
## Output 0.986

## Input What growth AUC value was documented for this compound, CCC(C)(c1ccc(O)cc1)c1ccc(O)cc1 ?
## Output 0.989
